biological target: GppNp-loaded HIS-KRAS (G12D, aa 1-169) / cRAF RBD (Homo sapiens, UniProt P01116, G12D); construct: GppNp-loaded HIS-KRAS (G12D, aa 1-169); assay: GTP-KRAS and cRAF interaction assay; details: HTRF, 2 hours at 25° C.
Sequence (P01116 1-169 isoform P01116-2 G12D): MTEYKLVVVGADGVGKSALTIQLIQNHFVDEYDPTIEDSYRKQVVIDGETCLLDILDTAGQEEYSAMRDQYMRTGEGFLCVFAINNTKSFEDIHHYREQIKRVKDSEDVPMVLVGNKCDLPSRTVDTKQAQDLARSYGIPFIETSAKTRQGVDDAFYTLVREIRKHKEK
measurement label: IC50 (nM)
Could you give me the number in nM? Just the number is fine.

Consider the worked cases shown below.
INSERT INTO measurements (compound, measurement_label, measured_value) VALUES
  ('Oc1cc(-c2c(Cl)cc3c(N4CC5CCC(C4)N5)nc(OCC4(CN5CCOCC5)CC4)nc3c2F)c2c(F)cccc2c1 [Compound 53]', 'IC50', 853),
  ('C#Cc1cccc2cc(O)cc(-c3c(C)cc4c(N5CC6CCC(C5)N6)nc(OCC5(CN6CCOCC6)CC5)nc4c3F)c12 [Compound 40]', 'IC50', 74.3),
  ('C#Cc1c(F)ccc2cc(O)cc(-c3c(C4CC4)cc4c(N5CC6CCC(C5)N6)nc(OC[C@@]56CCCN5C[C@H](F)C6)nc4c3F)c12 [Compound 71]', 'IC50', 73.2);

(Q) // lookup IC50 for C#Cc1cccc2cc(O)cc(-c3c(Cl)cc4c(N5CC6CCC(C5)N6)nc(OC[C@@]56CCCN5C[C@H](F)C6)nc4c3F)c12 (single isomer, unassigned) [Compound 72B]
(A) 23

(Q) Fill in the blank: the reported IC50 of C#Cc1cccc2cc(O)cc(-c3ccc4c(N5CC6CCC(C5)N6)nc(OCC5(CN6CCCCC6)CC5)nc4c3F)c12 [Compound 131] is ____.
(A) 90.4

(Q) // query IC50 value for entry C#Cc1cccc2cc(O)cc(-c3ccc4c(N5CC6CC(C5)N6)nc(OCC5(CN6CCOCC6)CC5)nc4c3F)c12 [Compound 55]
(A) 147

====

Tested on: AGS
Assay: Cell growth inhibition assay (AGS)
Format: cell-based
Conditions: 6 days incubation, CellTiter-Glo
Procedure: 4. Cell Growth Inhibition Assay AGS cultured in F12K medium (Gibco) containing 10% fetal bovine serum (Gibco). Cells in culture medium were plated in 96-well plates at a concentration of 500 cells/well ([…]) and allowed to attach overnight. The next day, compounds were diluted in culture medium and added to the plates. After 6 days incubation in a 37° C./5% CO2 cell incubator, the cell viability was detected by CellTiter-Glo® Luminescent Cell Viability Assay kit (Promega). […]
measurement label: IC50

(Q) Item C#Cc1cccc2cc(O)cc(-c3c(Cl)cc4c(N5CC6CCC(C5)N6)nc(OC[C@@]56CCCN5C[C@H](F)C6)nc4c3F)c12 (single isomer, unassigned) [Compound 72B] has what recorded IC50?
(A) 4.71 nM

====

system: AGS; experiment: Cell growth inhibition assay (AGS); format: cell-based; conditions: 6 days incubation, CellTiter-Glo
Each entry below lists one item and its recorded pIC50 value.
Note on units: pIC50 is unitless, being -log10 of a concentration expressed in mol/L.

Previously resolved entries follow.
INSERT INTO measurements (compound, measurement_label, measured_value) VALUES
  ('C#Cc1cccc2cc(O)cc(-c3c(SC(F)(F)F)cc4c(N5CC6CCC(C5)N6)nc(OCC5(CN6CCOCC6)CC5)nc4c3F)c12 (single isomer, unassigned) [Compound 59B]', 'pIC50', 8.22),
  ('C#Cc1cccc2cc(O)cc(-c3c(C(F)(F)F)cc4c(N5CC6CCC(C5)N6)nc(OCC5(CN6CCOCC6)CC5)nc4c3F)c12 (single isomer, unassigned) [Compound 98B]', 'pIC50', 8.22),
  ('C#Cc1cccc2cc(O)cc(-c3c(C)cc4c(N5CC6CCC(C5)N6)nc(OCC5(CN6CCOCC6)CC5)nc4c3F)c12 (single isomer, unassigned) [Compound 40B]', 'pIC50', 8.31),
  ('C#Cc1cccc2cc(O)cc(-c3c(C(F)(F)F)cc4c(N5CC6CCC(C5)N6)nc(OCC5(CN6CCOCC6)CC5)nc4c3F)c12 (single isomer, unassigned) [Compound 98A]', 'pIC50', 6.50);

Shifting focus to the compound that follows.
(Q) Missing value: pIC50, AGS, entry C#Cc1cccc2cc(O)cc(-c3c(Cl)cc4c(N5CC6CCC(C5)N6)nc(OCC5(CN6CCOCC6)CC5)nc4c3F)c12 (single isomer, unassigned) [Compound 35B] . Fill in?
(A) 7.87

These data points were gathered from patent US20240059710A1.
